- experimental-protocol: Test of storage stability in solution
- Format: physicochemical
- experimental-conditions: 13 mg in 1 mL TFP, brown bottle, 25° C., 3 days; 1250-fold diluted for measurement
Measured Δλmax(c) (change in absorption maximum wavelength) accompanies every entry in the list below.
Just the number in nm, nothing appended.

structure-string	measure-unit	val
Cc1c(/C=N/[N-]c2nnnn2-c2ccccc2)c([O-])n(Cc2ccccc2)c(=O)c1C#N.Cc1c(/C=N/[N-]c2nnnn2-c2ccccc2)c([O-])n(Cc2ccccc2)c(=O)c1C#N.Cc1c(/C=N/[N-]c2nnnn2-c2ccccc2)c([O-])n(Cc2ccccc2)c(=O)c1C#N.Cc1c(/C=N/[N-]c2nnnn2-c2ccccc2)c([O-])n(Cc2ccccc2)c(=O)c1C#N.[Co+3].[Co+3].c1ccc(CC[N+]23CC[N+](CCc4ccccc4)(CC2)CC3)cc1	nm	0

Task item: Would you mind telling me what Δλmax(c) (change in absorption maximum wavelength) value was observed for CCn1c([O-])c(/C=N/[N-]C(=O)c2ccc(C(F)(F)F)cc2)c(C)c(C#N)c1=O.CCn1c([O-])c(/C=N/[N-]C(=O)c2ccc(C(F)(F)F)cc2)c(C)c(C#N)c1=O.CCn1c([O-])c(/C=N/[N-]C(=O)c2ccc(C(F)(F)F)cc2)c(C)c(C#N)c1=O.CCn1c([O-])c(/C=N/[N-]C(=O)c2ccc(C(F)(F)F)cc2)c(C)c(C#N)c1=O.Oc1ccc(-c2ccccc2)cc1-[n+]1ccc(-c2cc[n+](-c3cc(-c4ccccc4)ccc3O)cc2)cc1.[Co+3].[Co+3] ?
Reply: 0
